Values compiled from ChEMBL document CHEMBL5512623.

- assay-explanation: Clearance in male Sprague-Dawley rat at 25 mg/kg, po measured upto 24 hrs by LC-MS/MS analysis
- Assay type: ADME, organism-based
- condition-info: in vivo

molecule-smiles: CC(C)(C(=O)O)c1cccc(CCCN2CCC(=C3c4ccc(Cl)cc4CCc4cccnc43)CC2)c1
CL/F, mL/min/kg: 59.4

* * *

- assay-explanation: Metabolic stability in mouse liver microsomes assessed as half life at 1 uM measured upto 120 mins by LC-MS/MS analysis
- Type: ADME, Microsome

molecule-smiles: CC(C)(C(=O)O)c1cccc(CCCN2CCC(=C3c4ccc(Cl)cc4CCc4cccnc43)CC2)c1
half-life at 1 µM: 1.44 h

* * *

- assay-explanation: Half life in male Sprague-Dawley rat at 25 mg/kg, po measured upto 24 hrs by LC-MS/MS analysis
- Type: ADME, organism-based
- condition-info: in vivo

molecule-smiles: CC(C)(C(=O)O)c1cccc(CCCN2CCC(=C3c4ccc(Cl)cc4CCc4cccnc43)CC2)c1
half-life, h: 4.05

* * *

- assay-explanation: Clearance in male Sprague-Dawley rat at 4 mg/kg, iv administered via tail vein and measured upto 24 hrs by LC-MS/MS analysis
- Format: ADME, organism-based
- condition-info: in vivo
measured-property: clearance

molecule-smiles: CC(C)(C(=O)O)c1cccc(CCCN2CCC(=C3c4ccc(Cl)cc4CCc4cccnc43)CC2)c1
recorded-value: 37 mL/min/kg

* * *

- assay-explanation: Plasma protein binding in rat assessed as binding rate at 1200 ng/ml prewarmed for 30 mins by LC-MS/MS analysis
- Assay type: ADME, cell-free
- condition-info: read-out: PPB (converted)

molecule-smiles: CC(C)(C(=O)O)c1cccc(CCCN2CCC(=C3c4ccc(Cl)cc4CCc4cccnc43)CC2)c1
fraction unbound at 0.5 h, 1200 ng/ml: 0.302

* * *

- assay-explanation: AUC (0 to t) in male Sprague-Dawley rat at 4 mg/kg, iv administered via tail vein and measured upto 24 hrs by LC-MS/MS analysis
- Format: ADME, organism-based
- condition-info: in vivo
measured-property: AUC(0-t) at 24 h (ng·h/mL)

molecule-smiles: CC(C)(C(=O)O)c1cccc(CCCN2CCC(=C3c4ccc(Cl)cc4CCc4cccnc43)CC2)c1
u: ng·h/mL
recorded-value: 1680

* * *

- assay-explanation: MRT (0 to infinity) in male Sprague-Dawley rat at 4 mg/kg, iv administered via tail vein and measured upto 24 hrs by LC-MS/MS analysis
- Assay type: ADME, organism-based
- condition-info: in vivo
measured-property: MRT inf (min)

molecule-smiles: CC(C)(C(=O)O)c1cccc(CCCN2CCC(=C3c4ccc(Cl)cc4CCc4cccnc43)CC2)c1
recorded-value: 42

* * *

- assay-explanation: Plasma protein binding in human assessed as binding rate at 250 ng/ml prewarmed for 30 mins by LC-MS/MS analysis
- Type: ADME, cell-free
- condition-info: read-out: PPB (converted)

molecule-smiles: CC(C)(C(=O)O)c1cccc(CCCN2CCC(=C3c4ccc(Cl)cc4CCc4cccnc43)CC2)c1
fraction unbound at 0.5 h, 250 ng/ml: 0.347

* * *

- assay-explanation: Cmax in male Sprague-Dawley rat brain at 10 mg/kg, IG administered as single dose
- Format: ADME, organism-based
- condition-info: po
measured-property: Cmax

molecule-smiles: Clc1ccc2c(c1)CCc1cccnc1C2=C1CCNCC1
recorded-value: 843 ng/g

molecule-smiles: CC(C)(C(=O)O)c1cccc(CCCN2CCC(=C3c4ccc(Cl)cc4CCc4cccnc43)CC2)c1
recorded-value: 15.8 ng/g
